Assay: Selectivity index, ratio of CC50 for African green monkey Vero cells to IC50 for chloroquine-resistant Plasmodium falciparum K1 asynchronous cultures infected in human erythrocytes
Format: toxicity, cell-based
Settings: read-out: Ratio CC50/IC50
OBSERVABLE: selectivity ratio
// no unit string in output, number only

# TEST_SMILES, EXPERIMENTAL_RESULT
records = [
    ("CCOC(=O)C[C@@H]([C@H]1O[C@@H]2OC(C)(C)O[C@@H]2[C@H]1Oc1ccccc1[N+](=O)[O-])n1cnc2c(N)ncnc21", 19.5),
    ("CC1(C)O[C@H]2O[C@H]([C@H](CCO)n3cnc4c(N)ncnc43)[C@@H](OCc3ccccc3)[C@H]2O1", 31.5),
]

Entry under review: COC(=O)C[C@@H]([C@H]1O[C@@H]2OC(C)(C)O[C@@H]2[C@H]1OCc1ccccc1)n1cnc2c(N)ncnc21 . Reported selectivity ratio?
14.3

Quick one: selectivity ratio for CC1(C)O[C@H]2O[C@H]([C@H](CCO)n3cnc4c(N)ncnc43)[C@H](OCc3ccccc3)[C@H]2O1 ?
19.5

Entry under review: CC1(C)O[C@H]2O[C@H]([C@H](CC(=O)O)n3cnc4c(N)ncnc43)[C@H](Oc3ccccc3N)[C@H]2O1 . Reported selectivity ratio?
18

Quick one: selectivity ratio for CC1(C)O[C@H]2O[C@H]([C@@H](CCO)n3cnc4c(NCc5ccccc5)ncnc43)[C@H](OCc3ccccc3)[C@H]2O1 ?
15

Requested field: selectivity ratio. Item: CCOC(=O)C[C@@H]([C@H]1O[C@@H]2OC(C)(C)O[C@@H]2[C@H]1OCc1ccccc1)n1cnc2c(NCc3ccccc3)ncnc21
50.4

* * *

Test system: Plasmodium falciparum
Assay: Antiplasmodial activity against chloroquine-resistant Plasmodium falciparum K1 asynchronous cultures infected in human erythrocytes measured after 72 hrs by SYBR Green1 dye based fluorescence assay
Assay type: functional, organism-based
Details: K1, 72 h
Reported pIC50 values are given for each entry in this list.
A value of pIC50 is the negative decimal logarithm of a concentration given in moles per litre.

# TEST_SMILES, pIC50
rows = [
    ("CCCCCCCCCCCCNc1ncnc2c1ncn2[C@H](CC(=O)OCC)[C@H]1O[C@@H]2OC(C)(C)O[C@@H]2[C@H]1OCc1ccccc1", 5.59),
    ("CC1(C)O[C@H]2O[C@H]([C@H](CCO)n3cnc4c(NCc5ccccc5)ncnc43)[C@H](OCc3ccccc3)[C@H]2O1", 5.35),
    ("CC1(C)O[C@H]2O[C@H]([C@H](CCO)n3cnc4c(N)ncnc43)[C@H](OCc3ccccc3)[C@H]2O1", 5.30),
    ("CCOC(=O)C[C@H]([C@H]1O[C@@H]2OC(C)(C)O[C@@H]2[C@H]1OCc1ccccc1)n1cnc2c(NCc3ccccc3)ncnc21", 5.64),
    ("CCOC(=O)C[C@@H]([C@H]1O[C@@H]2OC(C)(C)O[C@@H]2[C@H]1Oc1ccccc1[N+](=O)[O-])n1cnc2c(N)ncnc21", 5.31),
]

Entry CC1(C)O[C@H]2O[C@H]([C@H](CC(=O)O)n3cnc4c(N)ncnc43)[C@H](Oc3ccccc3N)[C@H]2O1 has what pIC50?
5.43

* * *

We begin with a simple list: items and their reported pIC50.
Test system: Plasmodium falciparum
Experiment: Antiplasmodial activity against chloroquine-resistant Plasmodium falciparum K1 asynchronous cultures infected in human erythrocytes measured after 72 hrs by SYBR Green1 dye based fluorescence assay
Type: functional, organism-based
Conditions: K1, 72 h
The value called pIC50 is obtained by taking minus log10 of the concentration in mol/L.

// known answers, use as guide
# TEST_SMILES, pIC50
measured = [
    ("CCOC(=O)C[C@H]([C@H]1O[C@@H]2OC(C)(C)O[C@@H]2[C@H]1Oc1ccccc1[N+](=O)[O-])n1cnc2c(N)ncnc21", 5.37),
    ("CC1(C)O[C@H]2O[C@H]([C@@H](CCO)n3cnc4c(NCc5ccccc5)ncnc43)[C@H](OCc3ccccc3)[C@H]2O1", 5.30),
    ("CC1(C)O[C@H]2O[C@H]([C@@H](CCO)n3cnc4c(N)ncnc43)[C@H](Oc3ccccc3[N+](=O)[O-])[C@H]2O1", 5.63),
    ("COC(=O)C[C@@H]([C@H]1O[C@@H]2OC(C)(C)O[C@@H]2[C@H]1OCc1ccccc1)n1cnc2c(N)ncnc21", 5.32),
    ("CC1(C)O[C@H]2O[C@H]([C@H](CCO)n3cnc4c(N)ncnc43)[C@@H](OCc3ccccc3)[C@H]2O1", 5.39),
    ("CCOC(=O)C[C@@H]([C@H]1O[C@@H]2OC(C)(C)O[C@@H]2[C@H]1OCc1ccccc1)n1cnc2c(NCc3ccccc3)ncnc21", 5.94),
    ("CCCCCCCCCCCCNc1ncnc2c1ncn2[C@@H](CC(=O)OCC)[C@H]1O[C@@H]2OC(C)(C)O[C@@H]2[C@H]1OCc1ccccc1", 5.95),
    ("COC(=O)C[C@H]([C@H]1O[C@@H]2OC(C)(C)O[C@@H]2[C@H]1OCc1ccccc1)n1cnc2c(N)ncnc21", 5.39),
]

Let's switch to this compound now.
Which pIC50 is reported for this compound? CC1(C)O[C@H]2O[C@H]([C@H](CCO)n3cnc4c(N)ncnc43)[C@H](Oc3ccccc3[N+](=O)[O-])[C@H]2O1
5.33

* * *

Test: Cytotoxicity against African green monkey Vero cells after 3 days by resazurin dye based fluorescence assay
Type: cell-based
Settings: chlorocebus sabaeus
OBSERVABLE: CC50 at 72 h (µM)
Use µM as the unit, but write only the number.

Value lookup for CC50 at 72 h; key = CC1(C)O[C@H]2O[C@H]([C@H](CCO)n3cnc4c(N)ncnc43)[C@@H](OCc3ccccc3)[C@H]2O1
148

Query (compound): CCCCCCCCCCCCNc1ncnc2c1ncn2[C@@H](CC(=O)OCC)[C@H]1O[C@@H]2OC(C)(C)O[C@@H]2[C@H]1OCc1ccccc1 ; field requested: CC50 at 72 h
81.5

* * *

Assay: Selectivity index, ratio of CC50 for African green monkey Vero cells to IC50 for chloroquine-resistant Plasmodium falciparum K1 asynchronous cultures infected in human erythrocytes
Assay type: toxicity, cell-based
Settings: read-out: Ratio CC50/IC50
OBSERVABLE: selectivity ratio

Check out these entries, answers already filled in.
# TEST_SMILES, selectivity ratio
measured = [
    ("CC1(C)O[C@H]2O[C@H]([C@H](CCO)n3cnc4c(NCc5ccccc5)ncnc43)[C@H](OCc3ccccc3)[C@H]2O1", 25.8),
    ("CCCCCCCCCCCCNc1ncnc2c1ncn2[C@@H](CC(=O)OCC)[C@H]1O[C@@H]2OC(C)(C)O[C@@H]2[C@H]1OCc1ccccc1", 72.1),
]

Which selectivity ratio is reported for this molecule? COC(=O)C[C@H]([C@H]1O[C@@H]2OC(C)(C)O[C@@H]2[C@H]1OCc1ccccc1)n1cnc2c(N)ncnc21
21.1

Please give the measured selectivity ratio for this molecule: CCOC(=O)C[C@@H]([C@H]1O[C@@H]2OC(C)(C)O[C@@H]2[C@H]1Oc1ccccc1N)n1cnc2c(N)ncnc21
< 17.9

Entry CCOC(=O)C[C@H]([C@H]1O[C@@H]2OC(C)(C)O[C@@H]2[C@H]1Oc1ccccc1[N+](=O)[O-])n1cnc2c(N)ncnc21 has what selectivity ratio?
28

So what's the measured selectivity ratio for this one? CCCCCCCCCCCCNc1ncnc2c1ncn2[C@H](CC(=O)OCC)[C@H]1O[C@@H]2OC(C)(C)O[C@@H]2[C@H]1OCc1ccccc1
17.5

* * *

# key: entry, value: selectivity ratio
Assay: Selectivity index, ratio of CC50 for African green monkey Vero cells to IC50 for chloroquine-sensitive Plasmodium falciparum 3D7 asynchronous cultures infected in human erythrocytes
Assay type: toxicity, cell-based
Settings: read-out: Ratio CC50/IC50
Hey, just send me the number, nothing else.

# TEST_SMILES, EXPERIMENTAL_RESULT
measured = [
    ("CC1(C)O[C@H]2O[C@H]([C@H](CCO)n3cnc4c(NCc5ccccc5)ncnc43)[C@H](OCc3ccccc3)[C@H]2O1", 19.6),
    ("CC1(C)O[C@H]2O[C@H]([C@H](CCO)n3cnc4c(N)ncnc43)[C@H](OCc3ccccc3)[C@H]2O1", 22.5),
    ("CC1(C)O[C@H]2O[C@H]([C@H](CC(=O)O)n3cnc4c(N)ncnc43)[C@H](Oc3ccccc3N)[C@H]2O1", 13.9),
    ("CC1(C)O[C@H]2O[C@H]([C@H](CCO)n3cnc4c(N)ncnc43)[C@@H](OCc3ccccc3)[C@H]2O1", 40.9),
    ("CC1(C)O[C@H]2O[C@H]([C@H](CCO)n3cnc4c(N)ncnc43)[C@H](Oc3ccccc3[N+](=O)[O-])[C@H]2O1", 37.1),
]

Looking for the measured selectivity ratio of CC1(C)O[C@H]2O[C@H]([C@@H](CCO)n3cnc4c(NCc5ccccc5)ncnc43)[C@H](OCc3ccccc3)[C@H]2O1 , can you help?
18.2

# input molecule: CCOC(=O)C[C@H]([C@H]1O[C@@H]2OC(C)(C)O[C@@H]2[C@H]1Oc1ccccc1[N+](=O)[O-])n1cnc2c(N)ncnc21 ; wanted: its selectivity ratio
28.1

Item under review: CCOC(=O)C[C@@H]([C@H]1O[C@@H]2OC(C)(C)O[C@@H]2[C@H]1Oc1ccccc1N)n1cnc2c(N)ncnc21 . Reported selectivity ratio?
20.1

For the molecule CC1(C)O[C@H]2O[C@H]([C@@H](CCO)n3cnc4c(N)ncnc43)[C@H](Oc3ccccc3[N+](=O)[O-])[C@H]2O1 , what selectivity ratio is on record?
11.5

Query: selectivity ratio; subject: CCOC(=O)C[C@@H]([C@H]1O[C@@H]2OC(C)(C)O[C@@H]2[C@H]1Oc1ccccc1[N+](=O)[O-])n1cnc2c(N)ncnc21
27.1
